Test: chemical genetic growth profiling, strain panel (AID 1159580);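 note: tested at 20 µM; growth read once vehicle control cultures reached saturation at 30 °C; 1 = growth at the plate median or of vehicle wells; lower values mean less growth of the strain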
Settings: S. cerevisiae deletion strains, growth OD, locus YHR087W, strain rtc3, active compounds read low
Out of some 5,500 compounds screened, about 2,000 (36%) were called active. Another 18% or so got no clear call; they are omitted. The list shows a part of the results.
readout: normalized growth

>>> print(df.to_string())
                                   compound            readout  test_value
0                  NNC(=O)c1cccnc1Oc1ccccc1  normalized growth        1.02
1  CC1CC(=O)Nc2ccccc2N1C(=O)c1ccc([N+](=O)[O-])cc1 (stereo not drawn)  normalized growth       0.978
2  CC(C)(C)c1ccc(Oc2ncccc2NC(=O)c2ccccc2C(F)(F)F)cc1  normalized growth           1

###

Assay: chemical genetic growth profiling, strain panel (AID 1159580);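 note: tested at 20 µM; growth read once vehicle control cultures reached saturation at 30 °C; 1 = growth at the plate median or of vehicle wells; lower values mean less growth of the strain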
Conditions: S. cerevisiae deletion strains, growth OD, locus YLR262C, strain YPT6
The whole screen tested about 5,500 compounds, of which about 2,000 (36%) were called active. Not shown: some 18% with an inconclusive outcome. Cut-off read from the data, not from the text of the source: active = normalized growth mostly below about 0.91 (no sharp cut-off); inconclusive = no clear call, values can overlap the other calls; inactive = mostly above about 0.92. Some of the results follow.
Labels: active, inactive

>>> df
                                    compound  discrete_label
 0       COc1cc(C)c2c(=O)c3c(O)cc(O)cc3oc2c1        inactive
 1  COC(=O)[C@H]1[C@H]2C[C@H]3c4[nH]c5cc(OC)ccc5c4CCN3C[C@H]2C[C@@H](OC(=O)c2cc(OC)c(OC)c(OC)c2)[C@@H]1OC        inactive
 2  Cc1onc(-c2ccccc2)c1C(=O)On1c(-c2ccccc2)nc2ccccc2c1=O          active
 3  CC1(C)S[C@@H]2[C@H](NC(=O)C(C(=O)O)c3ccccc3)C(=O)N2[C@H]1C(=O)O (stereo not given in full)        inactive
 4                       NC(N)=Nc1ccc(Cl)cc1        inactive
 5  COc1cc([N+](=O)[O-])c(OC)cc1SCC(=O)NNC(=O)c1cc(OC)c(OC)c(OC)c1        inactive
 6  COc1ccc(-c2cc(=O)c3c(O)cc(O)c(-c4cc(-c5cc(=O)c6c(O)cc(O)cc6o5)ccc4OC)c3o2)cc1        inactive
 7             NC(N)=NC(N)=Nc1cc(Cl)cc(Cl)c1        inactive
 8  Cn1c2c(c3ccccc31)/C(=N\OC(=O)c1ccc(Cl)cc1Cl)CCC2        inactive
 9        NC(=S)CS(=O)(=O)c1ccc(C(F)(F)F)cc1        inactive
10  CC(=O)O[C@@H]1CC2C(C)(CC[C@H](O)C2(C)C)C2CC[C@]3(C)C(=CC(=O)O[C@H]3c3ccoc3)C21C (stereo not given in full)        inactive
11  CCc1ccc2c(O)c3c(cc2c1C(=O)OC)C(=O)c1c(O)ccc(O)c1C3=O        inactive
12  CN1c2ccccc2C(=O)/C(=N/Nc2ccccc2F)S1(=O)=O        inactive
13                 COc1ccccc1NC(=S)NCCC(=O)O        inactive
14      COC(=O)Cc1cc(OC)c(OC)cc1[N+](=O)[O-]        inactive
15  CC(C)(C)NCC(O)COc1cccc2c1C[C@H](O)[C@H](O)C2 (stereo not given in full)        inactive
16                  COC(CNc1cccc(Cl)c1C#N)OC        inactive
17  CC[C@@]1(O)C(=O)OCc2c1cc1n(c2=O)Cc2cc3cc(O)ccc3nc2-1        inactive
18  CC[C@@]1(O)C(=O)OCc2c1cc1n(c2=O)Cc2cc3ccccc3nc2-1        inactive
19  C[C@@H]1CC[C@@]23CCC4(C)[C@@](C=CC5[C@@]6(C)CC[C@H](O)C(C)(C)C6CC[C@]54C)(OC2=O)C3[C@H]1C (stereo not given in full)        inactive
